Origin of the recorded values: patent US20220332795A1

# SYSTEM: T1, recombinant biotinylated human CD71 extracellular domain (human, UniProt P02786 89-760, biotinylated)
# T1 construct: extracellular domain; also called hCD71; huCD71 ECD
# T1 sequence (P02786 other isoform, or with tags, fused parts or gaps): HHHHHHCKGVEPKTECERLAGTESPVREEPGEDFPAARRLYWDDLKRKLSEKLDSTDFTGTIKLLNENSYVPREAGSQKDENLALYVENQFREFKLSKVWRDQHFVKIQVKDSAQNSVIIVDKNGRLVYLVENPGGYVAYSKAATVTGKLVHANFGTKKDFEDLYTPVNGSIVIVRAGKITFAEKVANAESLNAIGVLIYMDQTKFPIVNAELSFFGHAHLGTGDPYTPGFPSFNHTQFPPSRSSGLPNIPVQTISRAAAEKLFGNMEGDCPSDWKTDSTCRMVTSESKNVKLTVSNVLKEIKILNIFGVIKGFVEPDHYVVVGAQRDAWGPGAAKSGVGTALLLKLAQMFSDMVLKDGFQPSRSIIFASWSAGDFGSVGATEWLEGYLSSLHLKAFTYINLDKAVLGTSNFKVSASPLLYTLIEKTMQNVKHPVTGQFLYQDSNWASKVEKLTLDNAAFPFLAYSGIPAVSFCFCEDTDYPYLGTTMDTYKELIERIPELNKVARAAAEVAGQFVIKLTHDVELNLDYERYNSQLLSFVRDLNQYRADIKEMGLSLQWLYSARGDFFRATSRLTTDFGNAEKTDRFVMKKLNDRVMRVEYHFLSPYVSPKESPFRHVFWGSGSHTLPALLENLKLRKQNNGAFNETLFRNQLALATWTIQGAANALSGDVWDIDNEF
# TEST_METHOD_NOTES: solution ELISA, signal ratio to HSA
Entries and their hCD71:HSA values follow.
When you answer, write just the number.

* SEQ ID NO 139 (designed binder, FN3 domain) MLPAPKNLVVSRVTEDSARLSWTAPDAAFDSFFIGYLEPQPPGEAIQLGVPGSERSYDLTGLKPGTEYNVTIQGVKGGFPSHPLNANFTT | 73.8
* SEQ ID NO 168 (designed binder, FN3 domain) MLPAPKNLVVSRVTEDSARLSWTAPDAAFDSFYIAYAEPRPDGEAILLDVPGSERSYDLTGLKPGTEYSVLIHGVKGGLLSSPLSAIFTT | 271
* SEQ ID NO 131 (designed binder, FN3 domain) MLPAPKNLVVSRVTEDSARLSWTAPDAAFDSFYIAYAEPRPDGEAIHLWVPGSERSYDLTGLKPGTEYSVLIHGVKGGLLSSPLIAHFTT | 10.3

Prompt: Please supply the value of reported hCD71:HSA for the item SEQ ID NO 145 (designed binder, FN3 domain) MLPAPKNLVVSRVTEDSARLSWTAPDAAFDSFYIAYAEPRPDGEAILLQVPGSERSYDLTGLKPGTEYSVLIHGVKGGLLSSPLTAIFTT
Response: 348

Prompt: Please supply the value of reported hCD71:HSA for the item SEQ ID NO 195 (designed binder, FN3 domain) MLPAPKNLVVSRVTEDSARLSWTAPDAAFDSFYIAYAEPRPDGEAIILDVPGSERSYDLTGLKPGTEYSVLIHGVKGGLLSSPLSSIFTT
Response: 103

Prompt: Please supply the value of reported hCD71:HSA for the item SEQ ID NO 175 (designed binder, FN3 domain) MLPAPKNLVVSRVTEDSARLSWTAPDAAFDSFRISYCETFYHGEAIVLTVPGSERSYDLTGLKPGTEYSVLIHGVKGGLLSSPLIAKFTT
Response: 313

Prompt: Please supply the value of reported hCD71:HSA for the item SEQ ID NO 124 (designed binder, FN3 domain) MLPAPKNLVVSRVTEDSARLSWTAPDAAFDSFYIAYAEPRPDGEAIQLHVPGSERSYDLTGLKPGTEYSVLIHGVKGGLLSSPLLASFTT
Response: 63.1
